These measurements were taken from patent US5744621A.

- TARGET: HIV-1 protease (Human immunodeficiency virus type 1 group M subtype B)
- Construct: 2.6 nM of HIV-1 protease
- ASSAY TEXT: Assay for inhibitory effect on HIV protease (residual enzyme activity, HPLC of substrate cleavage)
- Type: biochemical
- CONDITION INFO: HIV-1 protease 2.6 nM, pH 5.5; rate constant of covalent bond formation; read-out: kina (converted)
QUANTITY: kinact (s⁻¹)
Give bare numbers, in s⁻¹.

Example entries begin here.
- CC[C@H](C)[C@H](NC(=O)C[C@@H]1O[C@@H]1[C@H](Cc1ccccc1)NC(=O)[C@H](CC(N)=O)NC(=O)c1ccc2ccccc2n1)C(=O)NCc1ccccc1: 0.002
- C[C@H](NC(=O)OCc1ccccc1)C(=O)N[C@@H](CC(N)=O)C(=O)N[C@@H](Cc1ccccc1)[C@H]1O[C@H]1CCc1ccccc1: 0.00117
- CC[C@H](C)[C@H](NC(=O)C[C@@H]1O[C@@H]1[C@H](Cc1ccccc1)NC(=O)[C@H](CC(N)=O)NC(=O)c1ccc2ccccc2n1)C(=O)NOC: 0.00333
- CC(C)(C)OC(=O)N[C@@H](Cc1ccccc1)[C@H]1O[C@H]1CCc1ccccc1: 0.000833
- CC(C)[C@H](NC(=O)OCc1cccnc1)C(=O)NC[C@@H]1O[C@@H]1[C@H](Cc1ccccc1)NC(=O)[C@@H](NC(=O)OCc1cccnc1)C(C)C: 0.00167

Please supply kinact for each of the following items, keeping them in order.
1. CC(C)[C@H](Cc1ccccc1)NC(=O)C[C@@H]1O[C@@H]1[C@H](Cc1ccccc1)NC(=O)[C@H](CC(N)=O)NC(=O)c1ccc2ccccc2n1
2. CC(C)[C@H](NC(=O)OCc1ccncc1)C(=O)NC[C@@H]1O[C@@H]1[C@H](Cc1ccccc1)NC(=O)[C@@H](NC(=O)OCc1ccncc1)C(C)C
3. CC(C)C(Cc1ccccc1)NC(=O)C[C@@H]1O[C@@H]1[C@H](Cc1ccccc1)NC(=O)[C@H](CC(N)=O)NC(=O)c1ccc2ccccc2n1 (stereo partly drawn)
4. CC[C@H](C)[C@H](NC(=O)C[C@@H]1O[C@@H]1[C@H](Cc1ccccc1)NC(=O)[C@H](CC(N)=O)NC(=O)c1ccc2ccccc2n1)C(N)=O
5. NC(=O)C[C@H](NC(=O)c1ccc2ccccc2[n+]1[O-])C(=O)N[C@@H](Cc1ccccc1)[C@H]1O[C@H]1CCc1ccccc1
6. CC(C)CC[C@@H]1O[C@@H]1[C@H](Cc1ccccc1)NC(=O)[C@H](CC(N)=O)NC(=O)OCc1ccccc1

output:
1. 0.0433
2. 0.00167
3. 0.035
4. 0.00333
5. 0.0015
6. 0.001

input: Jot down kinact (HIV-1 protease (Human immunodeficiency virus type 1 group M subtype B)) of CC(C)[C@H](NC(=O)C[C@@H]1O[C@@H]1[C@H](Cc1ccccc1)NC(=O)[C@H](CC(N)=O)NC(=O)c1ccc2ccccc2n1)C(=O)NCc1ccccn1 .
output: 0.00367

* * *

Provide the reported log10 kinact/KI of each item.
- TARGET: HIV-1 protease (Human immunodeficiency virus type 1 group M subtype B, UniProt P04585)
- Construct: 2.6 nM of HIV-1 protease
- ASSAY TEXT: Assay for inhibitory effect on HIV protease (residual enzyme activity, HPLC of substrate cleavage)
- Assay type: biochemical
- CONDITION INFO: second order rate constant; HIV-1 protease, pH 5.5; read-out: kina /KI (converted)
Heads up, the numbers here are log10 of kinact/KI in M⁻¹ s⁻¹ units.

Example entries begin here.
* CC(C)[C@H](NC(=O)OCc1ccccc1)C(=O)NC[C@@H]1O[C@@H]1[C@H](CC1CCCCC1)NC(=O)[C@@H](NC(=O)OCc1ccccc1)C(C)C | 4.82
* NC(=O)C[C@H](NC(=O)[C@H](Cc1ccccc1)NC(=O)OCc1ccccc1)C(=O)N[C@@H](Cc1ccccc1)[C@H]1O[C@H]1CCc1ccccc1 | 2.22
* CC[C@H](C)[C@H](NC(=O)C[C@@H]1O[C@@H]1[C@H](Cc1ccccc1)NC(=O)[C@H](CC(N)=O)NC(=O)c1ccc2ccccc2n1)C(=O)NC | 5.18
* CC(C)[C@@H](NC(=O)C[C@@H]1O[C@@H]1[C@H](Cc1ccccc1)NC(=O)[C@H](CC(N)=O)NC(=O)c1ccc2ccccc2n1)c1ccccc1 | 4.95
* CC(C)[C@H](Cc1ccccc1)NC(=O)C[C@@H]1O[C@@H]1[C@H](Cc1ccccc1)NC(=O)[C@H](CC(N)=O)NC(=O)c1ccc2ccccc2n1 | 7.74

Consider now this further compound.
input: Quick one: give measured log10 kinact/KI for CC(C)[C@H](NC(=O)N(C)Cc1ccccn1)C(=O)NC[C@@H]1O[C@@H]1[C@H](Cc1ccccc1)NC(=O)[C@@H](NC(=O)N(C)Cc1ccccn1)C(C)C
output: 4.54
